This collection of values is drawn from patent US20060204492A1.

Recorded Kd, one value per entry.
# MEASURED TARGET: T1, integrin αvβ3, purified from human placenta (human, UniProt P06756 31-1048; P05106 27-788)
# T1 construct: mature; Native heterodimer, immobilized on ELISA plates or on the BIAcore chip; biotinylated in capture lift and capture ELISA screens; also called αvβ3 receptor; vitronectin receptor
# T1 sequence (P06756 31-1048, form in doubt, chain 1 of 2): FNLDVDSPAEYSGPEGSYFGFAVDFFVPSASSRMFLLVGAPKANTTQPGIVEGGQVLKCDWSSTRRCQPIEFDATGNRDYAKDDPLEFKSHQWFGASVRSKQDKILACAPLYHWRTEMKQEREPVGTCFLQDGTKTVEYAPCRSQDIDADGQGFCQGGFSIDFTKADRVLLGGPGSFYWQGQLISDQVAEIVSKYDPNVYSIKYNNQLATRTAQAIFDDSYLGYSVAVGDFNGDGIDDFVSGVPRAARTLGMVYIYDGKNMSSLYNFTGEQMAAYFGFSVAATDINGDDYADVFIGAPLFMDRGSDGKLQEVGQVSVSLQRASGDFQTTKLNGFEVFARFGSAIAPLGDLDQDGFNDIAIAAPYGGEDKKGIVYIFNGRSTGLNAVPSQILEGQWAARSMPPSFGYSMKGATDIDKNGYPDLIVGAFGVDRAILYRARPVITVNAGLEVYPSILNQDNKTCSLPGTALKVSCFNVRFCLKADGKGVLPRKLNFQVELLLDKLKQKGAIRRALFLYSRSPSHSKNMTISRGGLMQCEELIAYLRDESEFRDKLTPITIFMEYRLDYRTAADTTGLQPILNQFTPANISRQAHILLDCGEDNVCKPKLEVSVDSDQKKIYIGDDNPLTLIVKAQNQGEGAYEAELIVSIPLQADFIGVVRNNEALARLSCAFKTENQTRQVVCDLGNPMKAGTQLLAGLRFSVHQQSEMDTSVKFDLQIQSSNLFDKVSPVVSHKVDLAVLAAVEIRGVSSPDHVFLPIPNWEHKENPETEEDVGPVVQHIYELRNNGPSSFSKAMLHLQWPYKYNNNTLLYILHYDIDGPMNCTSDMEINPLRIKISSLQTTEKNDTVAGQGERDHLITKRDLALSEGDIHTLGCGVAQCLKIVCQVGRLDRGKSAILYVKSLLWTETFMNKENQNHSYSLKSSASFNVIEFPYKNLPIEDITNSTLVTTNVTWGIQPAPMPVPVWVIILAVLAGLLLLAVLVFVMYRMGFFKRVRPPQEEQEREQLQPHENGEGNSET
# T1 sequence (P05106 27-788, form in doubt, chain 2 of 2): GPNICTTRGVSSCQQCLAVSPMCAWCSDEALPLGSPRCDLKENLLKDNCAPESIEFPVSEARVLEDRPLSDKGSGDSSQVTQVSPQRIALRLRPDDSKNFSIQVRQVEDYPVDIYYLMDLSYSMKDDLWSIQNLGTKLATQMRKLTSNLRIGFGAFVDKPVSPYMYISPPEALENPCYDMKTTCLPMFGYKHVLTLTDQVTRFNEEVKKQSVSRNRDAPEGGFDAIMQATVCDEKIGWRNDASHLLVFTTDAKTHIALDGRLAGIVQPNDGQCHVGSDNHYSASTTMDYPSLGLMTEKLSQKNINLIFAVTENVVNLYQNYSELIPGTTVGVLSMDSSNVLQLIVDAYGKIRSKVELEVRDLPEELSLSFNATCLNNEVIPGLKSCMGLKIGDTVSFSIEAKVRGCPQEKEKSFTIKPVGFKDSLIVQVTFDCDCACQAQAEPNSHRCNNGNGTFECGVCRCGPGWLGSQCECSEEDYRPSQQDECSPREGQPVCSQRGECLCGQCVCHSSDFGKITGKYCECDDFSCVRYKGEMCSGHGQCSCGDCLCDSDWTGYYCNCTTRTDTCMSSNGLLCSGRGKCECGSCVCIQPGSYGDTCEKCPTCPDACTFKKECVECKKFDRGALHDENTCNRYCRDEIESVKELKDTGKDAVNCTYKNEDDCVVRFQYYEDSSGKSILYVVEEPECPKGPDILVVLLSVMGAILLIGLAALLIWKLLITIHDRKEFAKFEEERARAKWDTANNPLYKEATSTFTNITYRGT
# ASSAY NOTES: SPR (BIAcore), purified Fab over immobilized αvβ3
Enter your answer as a number in nM; do not include the unit.

# count of solved cases: 6
LM609 grafted antibody variant L96 (Fab, V domains shown, Fab) VH: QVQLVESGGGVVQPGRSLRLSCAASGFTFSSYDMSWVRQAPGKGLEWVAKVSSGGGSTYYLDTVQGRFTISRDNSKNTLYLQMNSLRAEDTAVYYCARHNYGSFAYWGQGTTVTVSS VL: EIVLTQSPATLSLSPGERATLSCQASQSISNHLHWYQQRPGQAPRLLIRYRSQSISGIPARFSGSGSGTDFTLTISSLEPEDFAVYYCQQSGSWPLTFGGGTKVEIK    9.2
LM609 grafted antibody variant H97 (Fab, V domains shown, Fab) VH: QVQLVESGGGVVQPGRSLRLSCAASGFTFSSYDMSWVRQAPGKGLEWVAKVSSGGGSTYYLDTVQGRFTISRDNSKNTLYLQMNSLRAEDTAVYYCARHNHGSFAYWGQGTTVTVSS VL: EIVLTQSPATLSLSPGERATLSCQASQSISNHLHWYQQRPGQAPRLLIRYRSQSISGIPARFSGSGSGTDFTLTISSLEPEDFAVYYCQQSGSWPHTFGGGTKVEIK    13.8
LM609 grafted antibody variant K52 (Fab, V domains shown, Fab) VH: QVQLVESGGGVVQPGRSLRLSCAASGFTFSSYDMSWVRQAPGKGLEWVAKVKSGGGSTYYLDTVQGRFTISRDNSKNTLYLQMNSLRAEDTAVYYCARHNYGSFAYWGQGTTVTVSS VL: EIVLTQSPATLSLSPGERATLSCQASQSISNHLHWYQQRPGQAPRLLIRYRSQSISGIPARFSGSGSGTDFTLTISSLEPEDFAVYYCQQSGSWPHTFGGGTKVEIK    12.2
LM609 grafted antibody variant N92 (Fab, V domains shown, Fab; also called LM609 grafted antibody having Asn at position 92 of light chain CDR3) VH: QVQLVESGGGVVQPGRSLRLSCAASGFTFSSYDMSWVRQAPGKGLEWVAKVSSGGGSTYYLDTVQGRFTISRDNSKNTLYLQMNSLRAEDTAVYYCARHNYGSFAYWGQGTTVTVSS VL: EIVLTQSPATLSLSPGERATLSCQASQSISNHLHWYQQRPGQAPRLLIRYRSQSISGIPARFSGSGSGTDFTLTISSLEPEDFAVYYCQQSNSWPHTFGGGTKVEIK    5.7
LM609 grafted antibody variant F32 (Fab, V domains shown, Fab) VH: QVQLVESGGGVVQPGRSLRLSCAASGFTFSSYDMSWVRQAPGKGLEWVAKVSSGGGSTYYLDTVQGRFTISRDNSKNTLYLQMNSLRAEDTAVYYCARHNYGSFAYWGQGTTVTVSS VL: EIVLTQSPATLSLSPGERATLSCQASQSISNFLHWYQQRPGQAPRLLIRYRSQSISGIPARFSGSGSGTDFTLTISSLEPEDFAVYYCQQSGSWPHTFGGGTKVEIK    2.5
LM609 grafted antibody variant D102 (Fab, V domains shown, Fab) VH: QVQLVESGGGVVQPGRSLRLSCAASGFTFSSYDMSWVRQAPGKGLEWVAKVSSGGGSTYYLDTVQGRFTISRDNSKNTLYLQMNSLRAEDTAVYYCARHNYGSFADWGQGTTVTVSS VL: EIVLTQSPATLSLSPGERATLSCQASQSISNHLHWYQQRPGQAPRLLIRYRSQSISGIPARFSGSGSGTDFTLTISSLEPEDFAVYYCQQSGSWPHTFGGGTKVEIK    3.5

Short answer for LM609 grafted antibody variant G102 (Fab, V domains shown, Fab; also called clone G102) VH: QVQLVESGGGVVQPGRSLRLSCAASGFTFSSYDMSWVRQAPGKGLEWVAKVSSGGGSTYYLDTVQGRFTISRDNSKNTLYLQMNSLRAEDTAVYYCARHNYGSFAGWGQGTTVTVSS VL: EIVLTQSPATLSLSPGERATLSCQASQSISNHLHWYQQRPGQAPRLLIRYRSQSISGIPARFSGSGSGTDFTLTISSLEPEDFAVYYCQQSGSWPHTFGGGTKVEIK : Kd was 12.5

Short answer for LM609 grafted antibody variant A102 (Fab, V domains shown, Fab) VH: QVQLVESGGGVVQPGRSLRLSCAASGFTFSSYDMSWVRQAPGKGLEWVAKVSSGGGSTYYLDTVQGRFTISRDNSKNTLYLQMNSLRAEDTAVYYCARHNYGSFAAWGQGTTVTVSS VL: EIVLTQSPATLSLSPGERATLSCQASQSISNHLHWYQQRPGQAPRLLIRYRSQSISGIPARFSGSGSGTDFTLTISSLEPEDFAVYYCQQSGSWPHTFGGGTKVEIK : Kd was 8.3

Short answer for LM609 grafted antibody variant T102 (Fab, V domains shown, Fab) VH: QVQLVESGGGVVQPGRSLRLSCAASGFTFSSYDMSWVRQAPGKGLEWVAKVSSGGGSTYYLDTVQGRFTISRDNSKNTLYLQMNSLRAEDTAVYYCARHNYGSFATWGQGTTVTVSS VL: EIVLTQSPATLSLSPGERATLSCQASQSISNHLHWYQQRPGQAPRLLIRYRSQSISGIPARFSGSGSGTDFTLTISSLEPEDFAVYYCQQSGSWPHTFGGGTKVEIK : Kd was 5.8

Short answer for LM609 grafted antibody variant P60 (Fab, V domains shown, Fab) VH: QVQLVESGGGVVQPGRSLRLSCAASGFTFSSYDMSWVRQAPGKGLEWVAKVSSGGGSTYYPDTVQGRFTISRDNSKNTLYLQMNSLRAEDTAVYYCARHNYGSFAYWGQGTTVTVSS VL: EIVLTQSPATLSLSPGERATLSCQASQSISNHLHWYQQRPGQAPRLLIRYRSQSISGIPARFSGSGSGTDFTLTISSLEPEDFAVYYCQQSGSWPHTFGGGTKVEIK : Kd was 5.8
